Reference source for all entries: patent US20240336601A1

molecular target: interaction between PD-1 and PD-L1 (Homo sapiens); assay: PD-1/PD-L1 protein-protein interaction assay (ALPHA); settings: 2 nM His-tagged human PD-L1, 0.6 nM PD-1-Fc, AlphaScreen
Sequence (Q9NZQ7 19-238 limits assumed): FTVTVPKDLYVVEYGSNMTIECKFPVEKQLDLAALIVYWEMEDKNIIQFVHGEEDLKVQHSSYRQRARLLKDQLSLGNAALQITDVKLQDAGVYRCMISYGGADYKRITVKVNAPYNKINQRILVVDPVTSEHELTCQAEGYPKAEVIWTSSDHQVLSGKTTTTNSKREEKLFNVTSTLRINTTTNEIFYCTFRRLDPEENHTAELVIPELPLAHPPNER
parameter: IC50

Below, 3 compounds whose answers are already recorded.
{"columns": ["compound", "IC50"],
 "data": [
  ["CCOC(=O)C1(C)CN(Cc2c(OC)cc(-n3ncc4c(-c5cccc(-c6ccc(CNC[C@@H]7CCC(=O)N7)c(OC)n6)c5Cl)cccc43)cc2OC)C1", "1 to 10 nM"],
  ["COc1cc(-n2ncc3c(-c4cccc(Nc5nc(C(F)F)nc6cc(CN7CC[C@@H](O)C7)cnc56)c4C)cccc32)cc(OC)c1CN1CC[C@@](C)(C(=O)O)C1", "< 1 nM"],
  ["COc1cc(-n2ccc3c(-c4ccc5c(c4)OCCO5)cccc32)cc(OC)c1CNCCNC(C)=O", "> 100 nM"]
]}

Fill blank: measured IC50 of the compound COc1cc(-c2cn(C)c3c(-c4ccc5c(c4)OCCO5)cccc23)cc(OC)c1CNC[C@@H]1CCC(=O)N1 is ____.
10 to 100 nM

Give its IC50 value. Item: COc1cc(-n2ccc3c(-c4cccc(-c5cnc(CNC[C@@H]6CCC(=O)N6)c(OC)n5)c4Cl)cccc32)cc(OC)c1CNC[C@@H]1CCC(=O)N1
1 to 10 nM

Look at this compound and give its reported IC50. COc1cc(-n2ccc3c(-c4cccc(NC(=O)c5ccc(CNC(C)(CO)C(=O)O)cc5)c4C)cccc32)cc(OC)c1CNC(C)(CO)C(=O)O (stereo not shown)
> 100 nM

Returns the measured IC50 for the input compound. Input: COc1cc(-n2ncc3c(-c4cccc(-c5ccc(CN6CC[C@@H](C(=O)O)C6)c(OC)n5)c4Cl)cccc32)cc(OC)c1CN1CC2(CNC(=O)C2)C1
< 1 nM

Given COc1cc(-n2ncc3c(-c4cccc(-c5ccc(CN6CC7(CNC(=O)C7)C6)c(OC)n5)c4Cl)cccc32)cc(OC)c1CN1CC2(CNC(=O)C2)C1 , state its recorded IC50.
1 to 10 nM

I have this compound here, COc1cc(-n2ncc3c(-c4cccc(-c5ccc(CN6CC(C(C)(C)O)C6)c(OC)n5)c4C)cccc32)cc(OC)c1CN1CC(C(C)(C)O)C1 , and I need its recorded IC50.
< 1 nM

Requested read-out: IC50. Entry: COc1cc(-n2ccc3c(-c4cccc(-c5ccc(CN6CC(C)(O)C6)c(OC)n5)c4Cl)cccc32)cc(OC)c1CN1CC2(CNC(=O)C2)C1
< 1 nM

Can you look up the measured IC50 of COc1cc(-n2ncc3c(-c4cccc(-c5ccc(CN[C@H]6C[C@@H](O)C6)c(OC)n5)c4Cl)cccc32)cc(OC)c1CN[C@@H](CO)C(N)=O for me?
< 1 nM

Please give the measured IC50 for this compound: COc1cc(-n2ncc3c(-c4cccc(-c5ccc(CN6CC7(CCC(=O)N7)C6)c(OC)n5)c4Cl)cccc32)ncc1CNCCO
< 1 nM

Can you look up the measured IC50 of CCOC(=O)[C@@H](NCc1c(OC)cc(-n2ncc3c(-c4cccc(-c5ccc(CNC[C@@H]6CCC(=O)N6)c(OC)n5)c4Cl)cccc32)cc1OC)[C@@H](C)O for me?
< 1 nM

For the compound COc1nc(-n2ccc3c(-c4ccc5c(c4)OCCO5)cccc32)ccc1CN[C@@H](CO)C(=O)O , what IC50 is on record?
> 100 nM

// lookup IC50 for COc1cc(-n2ncc3c(-c4cccc(-c5ccc(CN[C@H]6C[C@@H](O)C6)c(OC)n5)c4Cl)cccc32)cc(OC)c1CN1CC(C)(C(N)=O)C1
< 1 nM

What does the data say about its IC50? Entry: COc1cc(-n2ncc3c(-c4cccc(-c5ccc(CN[C@H]6C[C@@H](O)C6)c(OC)n5)c4Cl)cccc32)cc(OC)c1CNC[C@@H](C)O
< 1 nM

IC50 lookup needed for COc1cc(-n2ncc3c(-c4cccc(-c5ccc(CN6CC7(CNC(=O)C7)C6)c(OC)n5)c4Cl)cccc32)cc(OC)c1CNCCO , thanks.
< 1 nM

I'd like to know its IC50. The compound in question is N#Cc1cccc(COc2cc(-n3ccc4c(-c5ccc6c(c5)OCCO6)cccc43)ccc2CNCCO)c1
> 100 nM
